B1: SMARCE1 (parent)
chain: YHNSPAYLAYINAKSRAEAALEEE

# Variants of: B1
# Assay remarks: protein stability index of a GFP-peptide fusion (GPS, HEK-293T) (PSI 1-6); higher = more stable;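 also: lentivirally expressed fusions sorted by FACS into six bins by GFP to DsRed ratio, PSI derived from sequencing read proportions per bin multiplied by bin number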
# Experimental conditions: c terminus: a fixed tail appended
Recorded protein stability index by entry
Form: value (number only, do not type unit).

>>> print(df.to_string())
               biopolymer_sequence  recorded_result
0   YHNSVAYLAYINAKSRAEAALEEE [P5V]             3.69
1  YHNSPAYLAYIDAKSRAEAALEEE [N12D]             2.26
2   YHNSPAYQAYINAKSRAEAALEEE [L8Q]             3.47
3  YHNSPAYLAYINAKSRAEAWLEEE [A20W]             1.93

In plain terms, YHNSPAYLIYINAKSRAEAALEEE [A9I] has a documented protein stability index of 2.81

Value of measured protein stability index for the entry YHNSPAYWAYINAKSRAEAALEEE [L8W] : 2.04

Recorded result, YHNSPAYLAYINAKSRAPAALEEE [E18P] , protein stability index: 1.88

Data origin, for the record: the supplement of paper PMC10567573
